Hey, just so you know, these numbers are from PubChem BioAssay (NCI).

# growth per entry
- Tested on: MDA-MB-435 melanoma
- EXPERIMENT_DESCRIPTION: NCI-60 one-dose screen, 48 h (100 = growth as untreated, 0 = no growth, -100 = all killed)
- EXPERIMENTAL_CONTEXT: 10 µM unless noted
The panel holds about 83,000 compounds, 20% with a hit somewhere; the sample as a whole holds those more often.
Give the value, in units of %, as a plain number.

CN1CCN(Cc2ccc(NC(=O)c3ccc(C#Cc4c(N)ncc5ccc(F)cc45)cc3)cc2C(F)(F)F)CC1    -92
CC1(C)C(O)NC(Cl)=C(C#N)C1(C#N)C#N (stereo unspecified)    113
C/C(=C\c1ccc2ccccc2c1)[N+](=O)[O-]    51.8

Query: Request the reported growth associated with O=C(/C=C/c1cccc(O)c1)c1cccc(-n2cc(-c3ccc(Cl)cc3)[nH]c2=O)c1
Result: -9.55

Query: Further, for Cc1nn(-c2ccccc2)c(N)c1N=C1NC(=O)/C(=C/c2ccc(Cl)cc2)S1 ?
Result: 66.9

Query: Follow-up entry: CCOc1ccc(Br)cc1/C=C(\C#N)c1ccc([N+](=O)[O-])cc1
Result: 85
